Source listed as PubChem BioAssay AID651616.

Target: Fructose-bisphosphate aldolase (Mycobacterium tuberculosis (strain ATCC 25618 / H37Rv))
Assay: M. tuberculosis aldolase blockers, biochemical, fluorescence, strain H37Rv, confirmation (AID 651616)
Conditions: purified M. tuberculosis FBA, fluorescence read-out, at 1 µM
About 4,400 (79%) of roughly 5,600 compounds were called active. Rule as the data show it: active = inhibition above about 27%; inactive = the rest. The set was probably picked from earlier hits. These entries were drawn from the full list.
Write down one outcome, taken from T for active, F for inactive

Example results:
{"columns": ["Compound", "Assigned Class"],
 "data": [
  ["C=CCn1cc(-c2cccc(C(F)(F)F)c2)cc(C#N)c1=O", "F"],
  ["Cn1cc(-c2ccccc2)cc(C#N)c1=O", "T"]
]}

stdin: Dear colleague, could you share the recorded outcome for Cn1cccc1-c1nc2ccccc2n1C when you have a moment?
stdout: F

stdin: Dear colleague, could you share the recorded outcome for COc1ccccc1C(=O)Nc1ccc(OCC(=O)N2CCCCC2)cc1 when you have a moment?
stdout: T

stdin: Dear colleague, could you share the recorded outcome for CCN(C(=O)COC(=O)c1ccc(COc2ccc3c(C)cc(=O)oc3c2)cc1)C1CCS(=O)(=O)C1 (stereo not given) when you have a moment?
stdout: F

stdin: Dear colleague, could you share the recorded outcome for CC1(C)CC(=O)c2cc(OCC(=O)NCC3CCCO3)ccc2O1 (stereo not given) when you have a moment?
stdout: F

stdin: Dear colleague, could you share the recorded outcome for COc1cc(OC)cc(C(=O)Nc2ccc(-c3nc4ccccc4o3)c(O)c2)c1 when you have a moment?
stdout: T
